Would you kindly list IC50 for each of these molecules?
Tested on: OVCAR-3
Experimental Protocol: Cytotoxicity against human OVCAR-3 cells assessed as inhibition of cell proliferation incubated for 4 hrs by MTS assay
Format: functional, cell-based
Condition Set: OVCAR-3, 4 h
Where a SMILES comes first, the peptide text is derived from it. [ ]: non-standard residue; d: D form. ξ: configuration not given here. Bip = N[C@@H](Cc1ccc(-c2ccccc2)cc1)C(=O)O; ξBip = NC(Cc1ccc(-c2ccccc2)cc1)C(=O)O; ξDip = NC(C(=O)O)C(c1ccccc1)c1ccccc1
I only need the number, in µM, no unit after it.

IN: Enter measured IC50, system OVCAR-3, for the molecule shown: NCCCC[C@H](NC(=O)[C@H](Cc1c[nH]c2ccccc12)NC(=O)[C@H](Cc1c[nH]c2ccccc12)NC(=O)[C@H](CCCCN)NC(=O)[C@H](CCCCN)NC(=O)[C@H](Cc1c[nH]c2ccccc12)NC(=O)[C@H](Cc1ccc(-c2ccccc2)cc1)NC(=O)[C@H](CCCCN)NC(=O)[C@@H](N)CCCCN)C(N)=O (H-KK[Bip]WKKWWK-NH2)
OUT: 14.1

IN: Enter measured IC50, system OVCAR-3, for the molecule shown: NCCCC[C@H](NC(=O)[C@H](Cc1c[nH]c2ccccc12)NC(=O)[C@H](Cc1c[nH]c2ccccc12)NC(=O)[C@H](CCCCN)NC(=O)[C@H](CCCCN)NC(=O)[C@H](Cc1c[nH]c2ccccc12)NC(=O)C(Cc1ccc(-c2ccccc2)cc1)NC(=O)[C@H](CCCCN)NC(=O)[C@@H](N)CCCCN)C(N)=O (stereo not given in full) (H-KK[ξBip]WKKWWK-NH2)
OUT: 14.3

IN: Enter measured IC50, system OVCAR-3, for the molecule shown: N=C(N)NCCC[C@H](NC(=O)[C@H](Cc1c[nH]c2ccccc12)NC(=O)[C@H](Cc1c[nH]c2ccccc12)NC(=O)[C@H](CCCNC(=N)N)NC(=O)[C@H](CCCNC(=N)N)NC(=O)C(NC(=O)[C@H](Cc1c[nH]c2ccccc12)NC(=O)[C@H](CCCNC(=N)N)NC(=O)[C@@H](N)CCCNC(=N)N)C(c1ccccc1)c1ccccc1)C(N)=O (stereo not given in full) (H-RRW[ξDip]RRWWR-NH2)
OUT: 8.4

IN: Enter measured IC50, system OVCAR-3, for the molecule shown: NCCCC[C@H](NC(=O)[C@H](Cc1c[nH]c2ccccc12)NC(=O)[C@H](CCCCN)NC(=O)[C@H](CCCCN)NC(=O)C(NC(=O)[C@H](Cc1c[nH]c2ccccc12)NC(=O)[C@H](CCCCN)NC(=O)[C@H](CCCCN)NC(=O)[C@@H](N)Cc1c[nH]c2ccccc12)C(c1ccccc1)c1ccccc1)C(N)=O (stereo not given in full) (H-WKKW[ξDip]KKWK-NH2)
OUT: 13.9

IN: Enter measured IC50, system OVCAR-3, for the molecule shown: NCCCC[C@H](NC(=O)C(NC(=O)[C@H](Cc1c[nH]c2ccccc12)NC(=O)[C@H](CCCCN)NC(=O)[C@H](CCCCN)NC(=O)[C@H](Cc1c[nH]c2ccccc12)NC(=O)[C@H](Cc1c[nH]c2ccccc12)NC(=O)[C@H](CCCCN)NC(=O)[C@@H](N)CCCCN)C(c1ccccc1)c1ccccc1)C(N)=O (stereo not given in full) (H-KKWWKKW[ξDip]K-NH2)
OUT: 5.2
